- Target Entity: human ileal/renal bile acid transporter (Homo sapiens, UniProt Q12908, S171A)
- Sequence (Q12908 1-348 S171A): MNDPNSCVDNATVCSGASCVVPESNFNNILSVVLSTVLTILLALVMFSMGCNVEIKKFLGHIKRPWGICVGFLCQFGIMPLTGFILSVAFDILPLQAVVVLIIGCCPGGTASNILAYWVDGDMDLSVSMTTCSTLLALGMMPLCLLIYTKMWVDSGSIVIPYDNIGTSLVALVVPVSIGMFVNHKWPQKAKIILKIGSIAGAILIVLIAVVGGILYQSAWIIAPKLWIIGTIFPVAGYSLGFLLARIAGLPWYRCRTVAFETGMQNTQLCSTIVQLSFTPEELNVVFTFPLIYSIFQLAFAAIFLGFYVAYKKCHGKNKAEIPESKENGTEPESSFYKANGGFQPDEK
- Assay Remarks: Substrate specificity: [^3 H]taurocholate competition in HIBAT-transfected COS cells (Dixon plot)
- Assay type: cell-based
- Set-up: were fused to make a single clone encoding the entire gene; expressed in transfected cells; host or cells: COS cells, transient DEAE-dextran transfection with pCMV5-HIBAT
The entries below are paired with their reported pKi.
pKi here is simply -log10 of the concentration when that concentration is written in mol/L.

Past entries and their recorded results:
{"columns": ["Compound", "pKi"],
 "data": [
  ["C[C@H](CCC(=O)O)[C@H]1CC[C@H]2[C@@H]3[C@H](O)C[C@@H]4C[C@H](O)CC[C@]4(C)[C@H]3CC[C@]12C [Chenodeoxycholate]", 5.48],
  ["C[C@H](CCC(=O)O)[C@H]1CC[C@H]2[C@@H]3CC[C@@H]4C[C@H](O)CC[C@]4(C)[C@H]3C[C@H](O)[C@]12C [Deoxycholate]", 5.19],
  ["C[C@H](CCC(=O)O)[C@H]1CC[C@H]2[C@@H]3[C@@H](O)C[C@@H]4C[C@H](O)CC[C@]4(C)[C@H]3CC[C@]12C [Ursodeoxycholate, Ursodeoxycholic acid]", 4.11]
]}

Give the measured pKi of C[C@H](CCC(=O)NCCS(=O)(=O)O)[C@H]1CC[C@H]2[C@@H]3CC[C@@H]4C[C@H](O)CC[C@]4(C)[C@H]3C[C@H](O)[C@]12C [Taurodeoxycholate, taurodeoxycholate] .
4.76

---

- Target Entity: human ileal/renal bile acid transporter (Homo sapiens, UniProt Q12908, S171A)
- Assay Remarks: Substrate specificity: [^3 H]taurocholate competition in HIBAT-transfected COS cells (Dixon plot)
- Assay type: cell-based
- Parameters: were fused to make a single clone encoding the entire gene; expressed in transfected cells; host or cells: COS cells, transient DEAE-dextran transfection with pCMV5-HIBAT
- Condition: read-out: Apparent Ki
Measured Quantity: Ki

{"columns": ["Compound", "Ki"],
 "data": [
  ["C[C@H](CCC(=O)NCCS(=O)(=O)O)[C@H]1CC[C@H]2[C@@H]3[C@@H](O)C[C@@H]4C[C@H](O)CC[C@]4(C)[C@H]3CC[C@]12C [Tauroursodeoxycholate]", "28.4 µM"]
]}

Let's switch to this compound now.
Reported Ki for human ileal/renal bile acid transporter (Homo sapiens, UniProt Q12908, S171A), given C[C@H](CCC(=O)NCCS(=O)(=O)O)[C@H]1CC[C@H]2[C@@H]3[C@H](O)C[C@@H]4C[C@H](O)CC[C@]4(C)[C@H]3CC[C@]12C [Taurochenodeoxycholate, taurochenodeoxycholate] ?
3.2 µM
